From: ChEMBL document CHEMBL1125993

- Measurement Target: Carboxypeptidase A1 (Bos taurus, UniProt P00730)
- Sequence (P00730 whole entry): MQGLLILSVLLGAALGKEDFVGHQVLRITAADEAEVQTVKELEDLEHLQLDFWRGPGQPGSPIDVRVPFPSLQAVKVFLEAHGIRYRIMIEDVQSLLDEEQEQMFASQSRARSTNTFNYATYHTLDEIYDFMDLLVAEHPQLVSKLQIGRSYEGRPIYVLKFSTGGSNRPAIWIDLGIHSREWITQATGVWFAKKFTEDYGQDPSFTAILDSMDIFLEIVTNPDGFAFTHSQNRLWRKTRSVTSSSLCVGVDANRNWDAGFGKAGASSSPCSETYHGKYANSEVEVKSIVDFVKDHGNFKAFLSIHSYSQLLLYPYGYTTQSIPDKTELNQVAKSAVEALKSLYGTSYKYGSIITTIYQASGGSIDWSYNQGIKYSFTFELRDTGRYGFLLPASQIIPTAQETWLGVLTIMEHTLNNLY
Measure: Ki (µM)
State just the number; it will be interpreted in µM.

// query What Ki value was documented for this compound, CCC(c1ccccc1)C(CS)C(=O)O (stereo unspecified) ?
// result 1.5
